This section presents compounds with their documented pEC50 values.
# Tested system: SSTR1 (Homo sapiens, UniProt P30872)
# Construct: expressed in transfected cells
# Sequence (P30872 whole entry): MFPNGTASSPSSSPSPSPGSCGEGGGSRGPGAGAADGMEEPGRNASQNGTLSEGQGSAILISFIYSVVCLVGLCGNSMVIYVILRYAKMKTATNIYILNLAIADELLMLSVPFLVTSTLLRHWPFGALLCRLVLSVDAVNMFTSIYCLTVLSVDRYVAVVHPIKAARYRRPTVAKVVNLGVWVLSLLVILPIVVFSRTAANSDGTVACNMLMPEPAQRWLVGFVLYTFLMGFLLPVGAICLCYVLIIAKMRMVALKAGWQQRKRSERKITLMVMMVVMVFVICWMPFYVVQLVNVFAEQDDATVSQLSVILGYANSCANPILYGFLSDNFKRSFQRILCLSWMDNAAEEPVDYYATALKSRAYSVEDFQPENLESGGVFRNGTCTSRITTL
# Assay method text: cAMP functional agonist assay, CHO cells expressing SSTR1
# Format: cell-based
# Settings: CHO cells stably expressing SSTR1, cAMP; read-out: SSTR1 EC50
pEC50: −log10 of the molar value.

Please review the following examples before continuing.
Cc1cc(Cl)cc(-c2cnc3nc(C(C)C)n(-c4cccc(O)c4)c(=O)c3c2CN(C)C[C@@H]2CCCN2)c1: 5.00 to 7.00
CCc1nc2ncc(-c3cc(C)cc(Cl)c3)c(CN(C)C[C@@H]3CCCN3)c2c(=O)n1-c1cccc(O)c1: 5.00 to 7.00
Cc1cc(Cl)cc(-c2cnc3ncn(-c4cccc(O)c4)c(=O)c3c2CN(C)C[C@@H]2CCCCN2)c1: 5.00 to 7.00
Cc1cc(F)cc(-c2cnc3ncn(-c4cccc(O)c4)c(=O)c3c2CN(C)CC2CCCCN2)c1 (stereo not shown): 5.00 to 7.00
CN(Cc1c(-c2cccc(CO)c2)cnc2ncn(-c3cccc(O)c3)c(=O)c12)C[C@@H]1CCCN1: < 5.00

Q: Item `Cc1cc(Cl)cc(-c2cnc3ncn(-c4cc(F)cc(C(N)=O)c4)c(=O)c3c2CN(C)C[C@@H]2CCCN2)c1` has what recorded pEC50?
Ans: 5.00 to 7.00

Q: Item `Cc1cc(Cl)cc(-c2cnc3ncn(-c4cc(O)cc(Cl)c4)c(=O)c3c2CN(C)C[C@@H]2CCCN2)c1` has what recorded pEC50?
Ans: 5.00 to 7.00

Q: Item `Cc1cc(Cl)cc(-c2cnc3ncn(-c4cc(O)cc(F)c4)c(=O)c3c2CN(C)C[C@H]2CCCN2)c1` has what recorded pEC50?
Ans: 5.00 to 7.00

Q: Item `Cc1cc(Cl)cc(-c2cnc3ncn(-c4cc(O)cc(F)c4)c(=O)c3c2CN(C)C[C@@H]2CCCCN2)c1` has what recorded pEC50?
Ans: 5.00 to 7.00

Q: Item `Cc1cc(Cl)cc(-c2cnc3ncn(-c4cc(O)cc(C(F)(F)F)c4)c(=O)c3c2CN(C)C[C@@H]2CCCN2)c1` has what recorded pEC50?
Ans: 5.00 to 7.00

Q: Item `CN(Cc1c(-c2cccc(CCO)c2)cnc2ncn(-c3cccc(O)c3)c(=O)c12)C[C@@H]1CCCN1` has what recorded pEC50?
Ans: < 5.00

Q: Item `Cc1cc(C)cc(-c2cnc3ncn(-c4cc(O)cc(F)c4)c(=O)c3c2CN(C)C[C@@H]2CCCCN2)c1` has what recorded pEC50?
Ans: 5.00 to 7.00

Q: Item `CCCN(CCN)Cc1c(-c2cc(C)cc(C)c2)cnc2ncn(-c3cccc(O)c3)c(=O)c12` has what recorded pEC50?
Ans: 5.00 to 7.00

Q: Item CN(Cc1c(-c2cccc(Cl)c2)cnc2ncn(-c3cccc(O)c3)c(=O)c12)CC1CCCCN1 (stereo not shown) has what recorded pEC50?
Ans: 5.00 to 7.00

Q: Item `Cc1cc(Cl)cc(-c2cnc3nc(C)n(-c4cc(F)cc(C#N)c4)c(=O)c3c2CN(C)C[C@@H]2CCCN2)c1` has what recorded pEC50?
Ans: 5.00 to 7.00

Q: Item `CCN(CCN)Cc1c(-c2cc(C)cc(Cl)c2)cnc2ncn(-c3cc(O)cc(F)c3)c(=O)c12` has what recorded pEC50?
Ans: < 5.00

Q: Item `CC[C@H](N)CN(C)Cc1c(-c2cc(C)cc(Cl)c2)cnc2ncn(-c3cc(O)cc(F)c3)c(=O)c12` has what recorded pEC50?
Ans: < 5.00

Q: Item `Cc1cc(Cl)cc(-c2cnc3nc(C)n(-c4cc(O)cc(F)c4)c(=O)c3c2CN(C)C[C@@H]2CCCN2)c1` has what recorded pEC50?
Ans: < 5.00

Q: Item `Cc1cc(Cl)cc(-c2cnc3ncn(-c4cc(F)cc(C(N)=O)c4)c(=O)c3c2CN(C)C[C@H]2CCCN2)c1` has what recorded pEC50?
Ans: < 5.00

Q: Item Cc1cccc(-c2cnc3ncn(-c4cccc(O)c4)c(=O)c3c2CN(C)CC2CCCCN2)c1 (stereo not shown) has what recorded pEC50?
Ans: 5.00 to 7.00

Q: Item `Cc1cc(Cl)cc(-c2cnc3ncn(-c4cc(O)cc(F)c4)c(=O)c3c2CN(C)C[C@@H]2CCCN2)c1` has what recorded pEC50?
Ans: 5.00 to 7.00

Q: Item Cc1cc(C)c(F)c(-c2cnc3ncn(-c4cccc(O)c4)c(=O)c3c2CN(C)CC2CCCCN2)c1 (stereo not shown) has what recorded pEC50?
Ans: 5.00 to 7.00

Q: Item `CCOC(=O)CNCCN(CC)Cc1c(-c2cc(C)cc(C)c2)cnc2ncn(-c3cccc(O)c3)c(=O)c12` has what recorded pEC50?
Ans: < 5.00

Q: Item `CC[C@H](N)CN(C)Cc1c(-c2cc(C)cc(Cl)c2)cnc2ncn(-c3cc(O)cc(C(F)(F)F)c3)c(=O)c12` has what recorded pEC50?
Ans: 5.00 to 7.00

Q: Item `Cc1cc(C)cc(-c2cnc3nc(C)n(-c4cc(O)cc(F)c4)c(=O)c3c2CN(C)C[C@@H]2CCCN2)c1` has what recorded pEC50?
Ans: < 5.00
